Test: chemical genetic growth profiling, strain panel (AID 1159580);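 note: tested at 20 µM; growth read once vehicle control cultures reached saturation at 30 °C; 1 = growth at the plate median or of vehicle wells; lower values mean less growth of the strain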
Conditions: S. cerevisiae deletion strains, growth OD, locus YHR142W, strain chs7
The whole screen tested about 5,500 compounds, of which about 2,000 (36%) were called active. Not shown: some 18% with an inconclusive outcome. Cut-off read from the data, not from the text of the source: active = normalized growth mostly below about 0.91 (no sharp cut-off); inconclusive = no clear call, values can overlap the other calls; inactive = mostly above about 0.92. The list shows a part of the results. Where a SMILES comes first, the peptide text is derived from it.
I would appreciate it if you answered using one of these outcomes: Y (active), N (inactive)

INSERT INTO results (compound, class_label) VALUES
  ('COc1ccc(-c2oc3c(CC=C(C)C)c(O[C@@H]4O[C@H](CO)[C@@H](O)[C@H](O)[C@H]4O)cc(O)c3c(=O)c2O[C@@H]2O[C@@H](C)[C@H](O)[C@@H](O)[C@H]2O)cc1', 'N'),
  ('O=C(O[C@@H]1Cc2c(O)cc(O)cc2O[C@@H]1c1cc(O)c(=O)c2c(O)c(O)cc([C@H]3Oc4cc(O)cc(O)c4C[C@H]3OC(=O)c3cc(O)c(O)c(O)c3)c2c1)c1cc(O)c(O)c(O)c1', 'Y'),
  ('COC(=O)[C@H](Cc1ccccc1)NC(=O)[C@@H](N)CC(=O)O (H-Asp-Phe-OMe)', 'N'),
  ('COc1ccc(-c2oc3cc(O[C@H]4O[C@H](CO)[C@@H](O)[C@H](O)[C@H]4O)c(OC)c(O)c3c(=O)c2OC)cc1O', 'N'),
  ('CN[C@@H]1[C@@H](O)C(OC2[C@@H](N)C[C@@H](N)[C@H](O[C@H]3O[C@H](C(C)O)[C@@H](O)[C@H](O)[C@H]3N)[C@H]2O)OC[C@]1(C)O (some centres not stated)', 'N');

Would you mind telling me which call this test gave `COc1cc(OC)c2ccc(=O)oc2c1` ?
N

Would you mind telling me which call this test gave CCC(c1ccc(O)cc1)C(CC)c1ccc(O)cc1 (configuration not stated) ?
N

Would you mind telling me which call this test gave CC1O[C@@H](Oc2c(-c3ccc(O)c(O)c3)oc3cc(O)cc(O)c3c2=O)[C@H](O)[C@H](O)[C@H]1O (some centres not stated) ?
N

Would you mind telling me which call this test gave C[C@@H]1O[C@@H](OC[C@H]2OC(Oc3c(-c4ccc(O)c(O)c4)oc4cc(O)cc(O)c4c3=O)[C@H](O)[C@@H](O)[C@@H]2O)[C@H](O)[C@H](O)[C@H]1O (some centres not stated) ?
N

Would you mind telling me which call this test gave `COc1cc(OC)c2c(=O)c(O)c(-c3ccc(OC)c(OC)c3)oc2c1` ?
Y

Would you mind telling me which call this test gave `O=c1ccc2c(O)c3ccoc3cc2o1` ?
N

Would you mind telling me which call this test gave `CC/C(=C(/CC)c1ccc(O)cc1)c1ccc(O)cc1` ?
N

Would you mind telling me which call this test gave `COc1ccc2ccc(=O)oc2c1` ?
N

Would you mind telling me which call this test gave `COc1cc(O)c2c(=O)c(O)c(-c3ccc(O)c(O)c3)oc2c1` ?
Y

Would you mind telling me which call this test gave `O=C(O[C@@H]1Cc2c(O)cc(O)cc2O[C@@H]1c1cc(O)c(=O)c2c(O)c(O)cc([C@H]3Oc4cc(O)cc(O)c4C[C@H]3O)c2c1)c1cc(O)c(O)c(O)c1` ?
Y

Would you mind telling me which call this test gave `CC(C)[N+](C)(CCC(C(N)=O)(c1ccccc1)c1ccccc1)C(C)C` ?
N

Would you mind telling me which call this test gave `COc1ccc(-c2cc(=O)c3c(O)cc(O[C@@H]4O[C@H](CO[C@H]5O[C@H](C)[C@@H](O)[C@H](O)[C@@H]5O)[C@@H](O)[C@H](O)[C@H]4O)cc3o2)cc1O` ?
N

Would you mind telling me which call this test gave `O=c1c(O)c(-c2ccc(O)cc2O)oc2cc(O)cc(O)c12` ?
N

###

Experiment: chemical genetic growth profiling, strain panel (AID 1159580);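 note: tested at 20 µM; growth read once vehicle control cultures reached saturation at 30 °C; 1 = growth at the plate median or of vehicle wells; lower values mean less growth of the strain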
Conditions: S. cerevisiae deletion strains, growth OD, locus YLR102C, strain apc9
Screen size: about 5,500 compounds; about 2,000 (36%) were called active. Inconclusive results (about 18%) are left out. Cut-off read from the data, not from the text of the source: active = normalized growth mostly below about 0.91 (no sharp cut-off); inconclusive = no clear call, values can overlap the other calls; inactive = mostly above about 0.92. The list shows a part of the results.
I would appreciate it if you answered using one of these outcomes: true = active, false = inactive

Example cases with answers are listed next.
INSERT INTO assay_data (compound, class_label) VALUES
  ('CC1CC[C@@]2(OC1)O[C@H]1CC3C4CC[C@@H]5CC(=O)CC[C@]5(C)C4CC[C@]3(C)[C@H]1[C@@H]2C (stereo partly specified)', 'false'),
  ('C[C@@H]([C@H](O)c1ccccc1)N(C)C', 'false'),
  ('CCCCCCCCCCCC1=C(O)C(=O)C=C(O)C1=O', 'false'),
  ('CCOC(=O)c1c(C)cc(OC)cc1O', 'false'),
  ('NC(=NCCC[C@H](N)C(=O)O)N[N+](=O)[O-]', 'false'),
  ('CCC(=O)c1c(O)cc(O)cc1O', 'false');

Would you mind telling me which call this test gave C[C@]12CCC3c4ccc(O)cc4CCC3C1C[C@@H](O)[C@@H]2O (stereo partly specified) ?
false

Would you mind telling me which call this test gave `CC(C)(O)[C@@H]1Cc2cc3ccc(=O)oc3cc2O1` ?
false

Would you mind telling me which call this test gave CC1CC[C@]2(NC1)O[C@H]1CC3C4CC[C@H]5C[C@@H](O)CC[C@]5(C)C4CC[C@]3(C)[C@H]1[C@@H]2C (stereo partly specified) ?
true

Would you mind telling me which call this test gave `CCOC(=O)c1c(C)cc(O)cc1O` ?
false

Would you mind telling me which call this test gave `O=C(O)C1=C[C@@H](O)[C@@H](O)[C@H](O)C1` ?
false

Would you mind telling me which call this test gave COC(=O)C1OC(=O)C2OC23C1(C)CCC1C2(C)C(OC(C)=O)CC(OC(C)=O)C(C)(C)C2CC(=O)C13C (stereo unspecified) ?
false

Would you mind telling me which call this test gave `CCc1cc(C(N)=S)ccn1` ?
false

Would you mind telling me which call this test gave COc1ccc2c(c1C(C)C)CCC1C(C)(C)C(=O)CCC21C (stereo unspecified) ?
false

###

Let's look at some compounds and their measured normalized growth.
Assay: chemical genetic growth profiling, strain panel (AID 1159580);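 note: tested at 20 µM; growth read once vehicle control cultures reached saturation at 30 °C; 1 = growth at the plate median or of vehicle wells; lower values mean less growth of the strain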
Details: S. cerevisiae deletion strains, growth OD, locus YOR136W, strain idh2, active compounds read low
Out of some 5,500 compounds screened, about 2,000 (36%) were called active. Inconclusive results (about 18%) are left out. Some of the results follow.
Quick one: just the number, no unit, thanks!

INSERT INTO results (compound, reading) VALUES
  ('C[C@@H]1O[C@@H](OC[C@H]2OC(Oc3c(-c4ccc(O)c(O)c4)oc4cc(O)cc(O)c4c3=O)[C@H](O)[C@@H](O)[C@@H]2O)[C@H](O)[C@H](O)[C@H]1O (some centres not stated)', 0.99),
  ('NC(=O)NCC(N)C(=O)O (configuration not stated)', 0.985);

For the compound `O=c1c(O)c(-c2ccc(O)cc2O)oc2cc(O)cc(O)c12` , give its measured normalized growth value.
1.02

For the compound CC12CCC3c4ccc(OC(=O)c5ccccc5)cc4CCC3C1CCC2O (configuration not stated) , give its measured normalized growth value.
1

###

Experiment: chemical genetic growth profiling, strain panel (AID 1159580);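 note: tested at 20 µM; growth read once vehicle control cultures reached saturation at 30 °C; 1 = growth at the plate median or of vehicle wells; lower values mean less growth of the strain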
Conditions: S. cerevisiae deletion strains, growth OD, locus YCL029C, strain bik1, active compounds read low
About 2,000 (36%) of roughly 5,500 compounds were called active. Not shown: some 18% with an inconclusive outcome. The list shows a part of the results.
Let's look at some compounds and their measured normalized growth.
Quick one: just the number, no unit, thanks!

INSERT INTO results (compound, reading) VALUES
  ('CC(C)C1COc2cc3oc(=O)ccc3cc2O1 (stereo not drawn)', 0.616),
  ('CCOC(=O)c1c(C)cc(OC)cc1O', 0.949),
  ('CCC(=O)c1c(O)cc(O)cc1O', 0.982),
  ('CC1=CC(=O)C2=C(C)CC[C@@H]3[C@H](OC(=O)[C@H]3C)[C@@H]12', 0.975);

For the compound COc1ccc2c(c1)CCC1C2CCC2(C)C1C[C@@H](O)C2O (stereo partly drawn) , give its measured normalized growth value.
0.993

For the compound `C=C(C)[C@H]1COc2cc3oc(=O)ccc3cc2O1` , give its measured normalized growth value.
0.72

For the compound `C[C@@H]([C@H](O)c1ccccc1)N(C)C` , give its measured normalized growth value.
1

For the compound CCCC(C)(COC(N)=O)COC(=O)NC(C)C (stereo not drawn) , give its measured normalized growth value.
0.977

For the compound `CCCCCCCCCCCC1=C(O)C(=O)C=C(O)C1=O` , give its measured normalized growth value.
0.89

For the compound NC(=O)NCCCC(N)C(=O)O (stereo not drawn) , give its measured normalized growth value.
0.998

For the compound `CC(C)(O)[C@@H]1Cc2cc3ccc(=O)oc3cc2O1` , give its measured normalized growth value.
1.01

For the compound `CC(C)[N+](C)(CCC(C(N)=O)(c1ccccc1)c1ccccc1)C(C)C` , give its measured normalized growth value.
1

For the compound Cc1ccccc1OCC(O)CO (stereo not drawn) , give its measured normalized growth value.
0.998
